test system: 201T; experiment: relative viability (nuclei count vs DMSO), 5 days (fraction); higher = more cells survive; settings: first compound 8 µM
measurementType: relative viability
Give the figure only, with no unit attached.

Please review the following examples before continuing.
compound	relative viability
C=C1C(=O)O[C@@H](CCCCCCCC)[C@@H]1C(=O)O [C-75] + COc1cc2c(Oc3ccc(NC(=O)C4(C(=O)Nc5ccc(F)cc5)CC4)cc3F)ccnc2cc1OCCCN1CCOCC1 [Foretinib] (partner 0.25 µM)	1.03
C=C1C(=O)O[C@@H](CCCCCCCC)[C@@H]1C(=O)O [C-75] + CCNC(=O)c1noc(-c2cc(C(C)C)c(O)cc2O)c1-c1ccc(CN2CCOCC2)cc1 [Luminespib] (partner 0.01 µM)	1.06

Consider the additional compound presented here.
*Q* Value lookup for relative viability; key = C=C1C(=O)O[C@@H](CCCCCCCC)[C@@H]1C(=O)O [C-75] + COc1cccc2cc(-c3nc([C@H]4CC[C@H](C(=O)O)CC4)n4ncnc(N)c34)[nH]c12 [OSI-027] (partner 0.5 µM)
*A* 0.734

###

tested on: NCI-H2009; assay: relative viability (nuclei count vs DMSO), 5 days (fraction); higher = more cells survive; conditions: first compound 0.253 µM
measurementType: relative viability
Give the figure only, with no unit attached.

Please review the following examples before continuing.
compound	targetOrSystem	relative viability
Oc1nc(-c2ccc(C(F)(F)F)cc2)nc2c1CSCC2 [XAV939] + Nc1nc2[nH]cc(CCc3ccc(C(=O)N[C@@H](CCC(=O)O)C(=O)O)cc3)c2c(=O)[nH]1 [Pemetrexed] (partner 0.2 µM)	NCI-H2009	1.08
Oc1nc(-c2ccc(C(F)(F)F)cc2)nc2c1CSCC2 [XAV939] + CC1(C)CCC(c2ccc(Cl)cc2)=C(CN2CCN(c3ccc(C(=O)NS(=O)(=O)c4ccc(N[C@H](CCN5CCOCC5)CSc5ccccc5)c(S(=O)(=O)C(F)(F)F)c4)cc3)CC2)C1 [Navitoclax] (partner 0.5 µM)	NCI-H2009	1.12
C=C1C(=O)O[C@@H](CCCCCCCC)[C@@H]1C(=O)O [C-75] + CC1(C)CCC(c2ccc(Cl)cc2)=C(CN2CCN(c3ccc(C(=O)NS(=O)(=O)c4ccc(N[C@H](CCN5CCOCC5)CSc5ccccc5)c(S(=O)(=O)C(F)(F)F)c4)cc3)CC2)C1 [Navitoclax] (partner 0.5 µM)	NCI-H2009	1.08

*Q* Value lookup for relative viability; key = Oc1nc(-c2ccc(C(F)(F)F)cc2)nc2c1CSCC2 [XAV939] + COc1cccc2cc(-c3nc([C@H]4CC[C@H](C(=O)O)CC4)n4ncnc(N)c34)[nH]c12 [OSI-027] (partner 0.5 µM)
*A* 0.561

###

test system: ABC-1; assay: relative viability (nuclei count vs DMSO), 5 days (fraction); higher = more cells survive; settings: first compound 0.04 µM
// assign t if relative viability falls strictly below 0.8, else f (ties count as f)

Some solved entries appear below for comparison.
compound	class
O=C(O)c1ccc(-c2c[nH]c3ncc(-c4ccccc4)cc23)cc1C1CCCC1 + C[C@@H](Oc1cc(-c2cnn(C3CCNCC3)c2)cnc1N)c1c(Cl)ccc(F)c1Cl [Crizotinib] (partner 1 µM)	f
O=C(O)c1ccc(-c2c[nH]c3ncc(-c4ccccc4)cc23)cc1C1CCCC1 + Cc1nc(NC(=O)N2CCC[C@H]2C(N)=O)sc1-c1ccnc(C(C)(C)C(F)(F)F)c1 [Alpelisib] (partner 2 µM)	f
O=C(O)c1ccc(-c2c[nH]c3ncc(-c4ccccc4)cc23)cc1C1CCCC1 + C[C@]1(O)C[C@@H](c2nc(-c3ccc4ccc(-c5ccccc5)nc4c3)c3c(N)nccn32)C1 [Linsitinib] (partner 1 µM)	t
O=C(O)c1ccc(-c2c[nH]c3ncc(-c4ccccc4)cc23)cc1C1CCCC1 + NC(=O)Nc1cc(-c2cccc(F)c2)sc1C(=O)N[C@H]1CCCNC1 [AZD7762] (partner 0.2 µM)	t
O=C(O)c1ccc(-c2c[nH]c3ncc(-c4ccccc4)cc23)cc1C1CCCC1 + Cc1nc(Nc2ncc(C(=O)Nc3c(C)cccc3Cl)s2)cc(N2CCN(CCO)CC2)n1 [Dasatinib] (partner 0.075 µM)	t

Alright, here's another compound for you.
*Q* Given O=C(O)c1ccc(-c2c[nH]c3ncc(-c4ccccc4)cc23)cc1C1CCCC1 + COc1cccc2cc(-c3nc([C@H]4CC[C@H](C(=O)O)CC4)n4ncnc(N)c34)[nH]c12 [OSI-027] (partner 0.5 µM) , is recorded relative viability strictly lower than 0.8?
*A* t

Origin of the recorded values: the supplement of paper PMC10307832
